# Tested on: LOU-NH91
# assay.name: relative viability (nuclei count vs DMSO), 5 days (fraction); higher = more cells survive
# applied.conditions: first compound 2.53 µM
observable: relative viability
Respond with the number and no other words.

compound	observable	number
Nc1cccc2c1CN(C1CCC(=O)NC1=O)C2=O (stereo not drawn) [Lenalidomide] + NC(=O)Nc1cc(-c2cccc(F)c2)sc1C(=O)N[C@H]1CCCNC1 [AZD7762] (partner 0.2 µM)	relative viability	0.766
Nc1cccc2c1CN(C1CCC(=O)NC1=O)C2=O (stereo not drawn) [Lenalidomide] + CC(=O)c1c(C)c2cnc(Nc3ccc(N4CCNCC4)cn3)nc2n(C2CCCC2)c1=O [Palbociclib] (partner 0.5 µM)	relative viability	0.487

Next compound, relative viability to be filled in.
Recall the recorded relative viability for Nc1cccc2c1CN(C1CCC(=O)NC1=O)C2=O (stereo not drawn) [Lenalidomide] + COc1cccc2cc(-c3nc([C@H]4CC[C@H](C(=O)O)CC4)n4ncnc(N)c34)[nH]c12 [OSI-027] (partner 0.5 µM) with LOU-NH91 and state it.
0.703

###

# System: A-427
# assay.name: relative viability (nuclei count vs DMSO), 5 days (fraction); higher = more cells survive
# applied.conditions: first compound 0.6325 µM
Each entry below lists one item and its recorded relative viability value.
Respond with the number and no other words.

Check out these entries, answers already filled in.
compound	relative viability
CN1CCN(CCOc2cc(OC3CCOCC3)c3c(Nc4c(Cl)ccc5c4OCO5)ncnc3c2)CC1 [Saracatinib] + CS(=O)(=O)CCNCc1ccc(-c2ccc3ncnc(Nc4ccc(OCc5cccc(F)c5)c(Cl)c4)c3c2)o1 [Lapatinib] (partner 2 µM)	1.07
Cc1csc(=NC2CCCCC2)n1/N=C/c1ccc(O)c(O)c1O [MIM1] + CC(=O)c1c(C)c2cnc(Nc3ccc(N4CCNCC4)cn3)nc2n(C2CCCC2)c1=O [Palbociclib] (partner 0.5 µM)	0.471
Cc1csc(=NC2CCCCC2)n1/N=C/c1ccc(O)c(O)c1O [MIM1] + Cc1nc(NC(=O)N2CCC[C@H]2C(N)=O)sc1-c1ccnc(C(C)(C)C(F)(F)F)c1 [Alpelisib] (partner 2 µM)	1.06

Endpoint output: relative viability of CN1CCN(CCOc2cc(OC3CCOCC3)c3c(Nc4c(Cl)ccc5c4OCO5)ncnc3c2)CC1 [Saracatinib] + CCNC(=O)c1noc(-c2cc(C(C)C)c(O)cc2O)c1-c1ccc(CN2CCOCC2)cc1 [Luminespib] (partner 0.01 µM) . Value?
0.907

###

# System: NCI-H2085
# assay.name: relative viability (nuclei count vs DMSO), 5 days (fraction); higher = more cells survive
# applied.conditions: first compound 0.002 µM
observable: relative viability
Respond with the number and no other words.

molecule	relative viability
CCNC(=O)c1noc(-c2cc(C(C)C)c(O)cc2O)c1-c1ccc(CN2CCOCC2)cc1 [Luminespib] + COc1cccc2cc(-c3nc([C@H]4CC[C@H](C(=O)O)CC4)n4ncnc(N)c34)[nH]c12 [OSI-027] (partner 0.5 µM)	0.793

Endpoint output: relative viability of CCNC(=O)c1noc(-c2cc(C(C)C)c(O)cc2O)c1-c1ccc(CN2CCOCC2)cc1 [Luminespib] + NC(=O)Nc1cc(-c2cccc(F)c2)sc1C(=O)N[C@H]1CCCNC1 [AZD7762] (partner 0.2 µM) . Value?
0.923
